System: HCT-116
procedure text: In vitro antiproliferative MTT assay, HCT-116
Type: cell-based
recorded conditions: Homo sapiens, HCT-116, read-out: IC50 HCT-116
pIC50: −log10 of the molar value.
experimental readout: pIC50

Sample records with pIC50:
C/C(=N\N)c1ccc(S(=O)(=O)N2CCC(C)CC2)cc1 ... 4.06
CNC(=O)c1cc(Oc2ccc(NC(=O)Nc3ccc(Cl)c(C(F)(F)F)c3)cc2)ccn1 ... 5.03

(A) COc1cccc2c1C(=O)c1c(O)c3c(c(O)c1C2=O)C[C@@](O)(C(=O)CO)C[C@@H]3O[C@H]1C[C@H](N)[C@H](O)[C@H](C)O1
(B) CC[C@]1(O)C[C@@H]2CN(CCc3c([nH]c4ccccc34)[C@@](C(=O)OC)(c3cc4c(cc3OC)N(C)[C@H]3[C@@](O)(C(=O)OC)[C@H](OC(C)=O)[C@]5(CC)C=CCN6CC[C@]43[C@@H]65)C2)C1
(C) CCN(CC)C(=S)N/N=C(\C)c1ccc(S(=O)(=O)N2CCC(C)CC2)cc1
Output the entries ranked by pIC50 from maximum down to minimum. Arrange the labels as the request states and list them.
B, A, C
(B: 5.49, A: 5.17, C: 4.82)

Provenance of the data: paper PMC12423892
